# SYSTEM_TESTED: hZO1 PDZ1 (Homo sapiens)
# Construct: Human ZO1 (NM_003257) PDZ1; GST; made in house
# Sequence (Q07157 23-110): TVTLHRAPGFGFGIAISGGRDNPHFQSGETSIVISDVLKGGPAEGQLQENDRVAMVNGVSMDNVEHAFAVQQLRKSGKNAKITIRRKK
# METHOD_DESCRIPTION: IC50 (nM) | hZO1 PDZ1 | 5 nM | B01-88 | Bio-GGWRWTTWL (SEQ ID NO 684) | 36 nM
Where no end group is shown, it is not given here.
ASSAY_ENDPOINT: IC50 (nM)
Give bare numbers, in nM.

Use these answered entries as a reference point.
- SUBSTANCE: "Ac-YSLTGYV [15 | 01-94, SEQ ID NO 654 N^AC-YSLTGYV]"
  SYSTEM_TESTED: "hZO1 PDZ1 (Homo sapiens)"
  MEAS_VALUE: 12400
- SUBSTANCE: "Ac-ERIWFV [29 | 01-24, SEQ ID NO 668 NAC-ERIWFV]"
  SYSTEM_TESTED: "hZO1 PDZ1 (Homo sapiens)"
  MEAS_VALUE: 21400
- SUBSTANCE: "Ac-KTSTSYV [14 | 01-97, SEQ ID NO 653 N^AC-KTSTSYV]"
  SYSTEM_TESTED: "hZO1 PDZ1 (Homo sapiens)"
  MEAS_VALUE: 2030

State the recorded IC50 for every item in the following list.
1. Ac-WGWTTWL [12 | 01-30, EQ ID NO 651 N^AC-WGWTTWL]
2. Ac-WRHTTWL [11 | 01-29, EQ ID NO 650 N^AC-WRHTTWL]
3. Ac-YSRSQYV [16 | 01-95, SEQ ID NO 655 N^AC-YSRSQYV]
4. Ac-YRLNDYV [18 | 01-98, SEQ ID NO 657 N^AC-YRLNDYV]

[A]
[47, 35, 4620, 28600]

The origin of these recorded values is patent US20030148264A1.
